# Tested target: T1, PC1, P29120
# T1 chain: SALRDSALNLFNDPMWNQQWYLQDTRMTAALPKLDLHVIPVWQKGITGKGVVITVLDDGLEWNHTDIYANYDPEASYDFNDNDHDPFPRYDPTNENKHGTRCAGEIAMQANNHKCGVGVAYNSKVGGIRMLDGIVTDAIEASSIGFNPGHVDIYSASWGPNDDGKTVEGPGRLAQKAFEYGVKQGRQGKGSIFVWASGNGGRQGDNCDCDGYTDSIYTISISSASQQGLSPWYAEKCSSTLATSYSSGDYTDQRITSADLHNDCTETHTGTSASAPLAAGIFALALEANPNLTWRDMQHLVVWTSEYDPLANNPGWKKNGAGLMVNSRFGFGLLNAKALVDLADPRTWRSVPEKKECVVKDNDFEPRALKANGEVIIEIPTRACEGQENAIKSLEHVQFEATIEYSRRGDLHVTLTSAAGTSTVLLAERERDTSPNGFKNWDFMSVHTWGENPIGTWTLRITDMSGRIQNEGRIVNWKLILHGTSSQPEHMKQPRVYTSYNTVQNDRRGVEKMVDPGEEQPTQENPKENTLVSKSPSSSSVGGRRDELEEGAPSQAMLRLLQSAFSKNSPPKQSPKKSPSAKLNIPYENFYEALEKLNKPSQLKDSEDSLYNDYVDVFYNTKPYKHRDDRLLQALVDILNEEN
# Conditions used: modification not given
Property: pKi
// pKi: -log10(molar conc.)

Data point: RRRRRRRRR [Nona-L-arginine] ; pKi = 4.92

Reference source for all entries: patent US7033991
